test system: T-47D spheroids with HUVEC/MSC, viability; assay: Anticancer human tumor T-47D cell line growth inhibition [PI3K]; conditions: second compound 0.1 µM; first compound 0.316 µM; stronger effect = lower value;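 further: spheroids exposed to agents for seven days before reading; percent of DMSO vehicle control luminescence so 100% = untreated growth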
EXPERIMENTAL_ENDPOINT: viability, T/C (%)
Value expressed in %; do not type the unit.

Look over these answered cases.
• CC(Cn1ccc(-c2ccc(C#N)c(Cl)c2)n1)NC(=O)c1cc(C(C)O)[nH]n1 (stereo not given) + CC(Nc1ncnc2nc[nH]c12)c1cc2cccc(Cl)c2c(=O)n1-c1ccccc1 = 75.7
• CNC(=O)c1ccc(N2C(=S)N(c3ccc(C#N)c(C(F)(F)F)c3)C(=O)C2(C)C)cc1F + CC(Nc1ncnc2nc[nH]c12)c1cc2cccc(Cl)c2c(=O)n1-c1ccccc1 = 114
• CCCS(=O)(=O)Nc1ccc(F)c(C(=O)c2c[nH]c3ncc(-c4ccc(Cl)cc4)cc23)c1F + COc1c(OCCCN2CCOCC2)ccc2c3n(c(=NC(=O)c4cnc(N)nc4)nc12)CCN3 = 36.4

The value of viability, T/C measured for the molecule C#Cc1c(F)ccc2cc(O)cc(-c3ncc4c(N5CC6CCC(C5)N6)nc(OCC56CCCN5CC(F)C6)nc4c3F)c12 (stereo not given) + CC(Nc1ccc2c(c1)OCCn1cc(N3C(=O)OCC3C(F)F)nc1-2)C(N)=O turned out to be 79

Per the record, C=CC(=O)N1CCN(c2nc(=O)n(-c3c(C)ccnc3C(C)C)c3nc(-c4c(O)cccc4F)c(F)cc23)C(C)C1 (stereo not given) + COc1c(OCCCN2CCOCC2)ccc2c3n(c(=NC(=O)c4cnc(N)nc4)nc12)CCN3 has viability, T/C of 41.1
